# assay: Inhibition of Hepatitis C virus genotype 1b Con1 NS5B Cdelta21 polymerase assessed as incorporation of [33P]-CTP into heteropolymer RNA template after 2 hrs
# Set-up: species or system Hepacivirus hominis
# assayContext: Con1, 2 h
assayReadout: IC50

Illustrative cases are given below, each with its answer.
| cpdSmiles | IC50 |
| --- | --- |
| CC(C)c1ccc(NC(=O)c2cccnc2-c2ccccc2)c(N2CCN(c3cnccn3)CC2)c1 | > 200 µM |
| CC(C)c1ccc(NC(=O)c2cccnc2)c(N2CCN(C(=O)CN(C)C)CC2)c1 | > 200 µM |
| Cc1nocc1C(=O)Nc1ccc(C(C)C)cc1N1CCN(c2cnccn2)CC1 | > 200 µM |

Proceed to the following item.
*Q* Requested read-out: IC50. Entry: CC(C)c1ccc(NC(=O)c2cncnc2)c(N2CCN(c3cnccn3)CC2)c1
*A* > 20 µM
